# Tested on: SF-268 CNS
# EXPERIMENTAL DETAILS: NCI tumour cell line growth inhibition, 48 h
Recorded TGI by entry

Reference set, count: 4
* CC1(C)O[C@@H]([C@H](O)CO)[C@H](O)[C@@H](C2SCCCS2)O1 | > 100 µM
* COc1ccc(C/C(=N/O)C(=O)NCCc2cc(Br)c(OCCCN(C)C)c(Br)c2)cc1Br | 39.4 µM
* C=CCn1c(-c2ccc([N+](=O)[O-])cc2)cs/c1=N\C(P(=O)(O)O)P(=O)(O)O | > 100 µM
* CC(NC(=O)/C(=C/c1ccccc1)NC(=O)c1ccccc1)C(=O)O (stereo not given) | > 100 µM

Consider the record given below.
// query Look up TGI: COc1ccc(C2NC(=S)Nc3c2c(=O)oc2c3ccc3ccccc32)cc1 (stereo not given)
// result > 100 µM

###

# Tested on: MDA-MB-231 breast
# EXPERIMENTAL DETAILS: NCI tumour cell line growth inhibition, 48 h
READOUT TYPE: TGI

Reference set, count: 2
- Cc1ccc(S(=O)(=O)NC(=O)NCCc2cnc[nH]2)cc1: > 100 µM
- CC(O)(Cc1ccccc1C#N)Cc1ccccc1C#N: > 100 µM

// query Look up TGI: "CN(C)CCCN1C(=S)N(CCCN(C)C)c2c3ccccc3nc3c([N+](=O)[O-])ccc1c23"
// result 24 µM

// query // next record "Nc1nccc(-c2c(-c3ccc(F)cc3)ncn2C2CCNCC2)n1"
// result > 25 µM

// query // next record "Fc1cccc(COc2ccc(Nc3ncnc4sc(-c5cccs5)cc34)cc2Cl)c1"
// result 16.4 µM

// query // next record "Cc1ccccc1N=Nc1c(O)c(S(=O)(=O)O)cc2cc(S(=O)(=O)O)ccc12"
// result > 100 µM

// query // next record N=C1OC(CN2CCN(c3ccccc3)CC2)CN1C(=S)Nc1ccccc1 (stereo not given)
// result > 100 µM

// query // next record CC(=O)C1=C(C)N2C(=NC3=C(CCc4ccccc43)C2c2ccc(F)cc2)S1 (stereo not given)
// result > 100 µM

// query // next record "CC(C)(C)OC(=O)n1c2ccccc2c2c(=O)nc(N3CCCCC3)sc21"
// result > 100 µM

// query // next record O=C1NC(=O)C(F)(n2cc(F)c(=O)[nH]c2=O)C(O)N1 (stereo not given)
// result > 10 µM

###

# Tested on: SK-MEL-2 melanoma
# EXPERIMENTAL DETAILS: NCI tumour cell line growth inhibition, 48 h
READOUT TYPE: TGI

Reference set, count: 5
- O=C(CC(=O)N1N=C(N2CCCCC2)CC1c1ccccc1)Nc1ccccc1 (stereo unspecified): > 100 µM
- O=c1[nH]c2ccccc2c2ccccc12: > 100 µM
- N#Cc1cc(C#N)c(N)nc1N: > 100 µM
- O=C1C2Nc3ccccc3SC2C(=O)N1c1ccc(Br)cc1 (stereo unspecified): > 100 µM
- Clc1ccccc1/C=c1\nc(-c2ccccc2)n2c1nc1ccccc12: > 100 µM

// query Look up TGI: "COc1ccc(C2=N[C@@H](Cc3ccccc3)C(=O)Nc3ccsc32)cc1"
// result 30 µM

###

Recorded TGI by entry
# Test system: A549 NSCLC
# EXPERIMENTAL DETAILS: NCI tumour cell line growth inhibition, 48 h

• COc1cc(OC)c2c(c1)OC(c1ccccc1)CC2=O (stereo not drawn) = > 10 µM
• CN1C(=O)CCC1(O)C1C=CC=CC1 (stereo not drawn) = > 100 µM
• O=C(O)CCCC(=O)Nn1c(Cc2ccc(Cl)cc2)n[nH]c1=O = > 100 µM
• CC(=O)C(=[N+]=[N-])C(=O)N1CCOC1=O = > 10 µM
• COc1cc2oc(=O)ccc2cc1C(=O)CC(C)C = > 100 µM
• COC(=O)C(C(=O)C(=O)Nc1c(C)cccc1C)c1cnc2ccccc2n1 (stereo not drawn) = > 100 µM

// query Find the measured TGI: item "CCN(CC)C(=O)Cc1c(C(=O)N(CC)CC)c(=O)nc2sccn12" , target or system A549 NSCLC.
// result > 100 µM

// query // next record COc1ccc(C2CC(c3cccc(Nc4ccnc5cc(Cl)ccc45)c3)=NN2C=O)cc1 (stereo not drawn)
// result 18.3 µM

// query // next record "CC(=O)Nc1ccc2c(c1)C(c1ccccc1Cl)=Nc1c(n[nH]c1C)N2"
// result > 25 µM

// query // next record "CC(C)(C)c1ccc(S(=O)(=O)Oc2ccc3c4c(c(=O)oc3c2)CCCCC4)cc1"
// result 39.8 µM

// query // next record N#CC12Cc3cc4c(cc3-c3cccc(c31)CCN2C(=O)c1ccccc1)OCO4 (stereo not drawn)
// result > 100 µM

// query // next record "O=C(O)CN1C=C(C(=O)c2cc3ccccc3n2S(=O)(=O)c2ccccc2)CCC1"
// result > 100 µM

// query // next record "O=C(/C=C/c1cc(Cl)cc(Cl)c1O)c1cccc(O)c1"
// result > 100 µM

// query // next record "CCc1n[nH]c(=O)n1/N=C/c1ccccc1O"
// result > 100 µM

// query // next record "O=C(CSc1nc2ccc([N+](=O)[O-])cc2s1)c1ccc2ccccc2c1"
// result > 100 µM

// query // next record "O=c1cc(N=Nc2ccc(Br)cc2)[nH]c(=S)[nH]1"
// result > 100 µM

// query // next record "O=C(NCCCCCCCCCCCCNC(=O)c1cccc2ccccc12)c1cccc2ccccc12"
// result > 100 µM

// query // next record "COc1cc(NS(C)(=O)=O)ccc1Nc1cc[nH]c2ccc3nccc3c12"
// result 34.9 µM

###

# System: IGROV1 ovarian
# EXPERIMENTAL DETAILS: NCI tumour cell line growth inhibition, 48 h
READOUT TYPE: TGI

Reference set, count: 6
- N=C1OC(CN2CCN(c3ccccc3)CC2)CN1C(=S)Nc1ccccc1 (stereo not drawn): > 100 µM
- Cc1cc2c(c(C=Nc3ccccc3O)c1)OC1(C=C2)Oc2ccccc2C(=O)N1C (stereo not drawn): 58.5 µM
- Cc1c(N2C(=O)/C(=C/c3ccc(Cl)cc3)N=C2c2ccccc2)c(=O)n(-c2ccccc2)n1C: 88.5 µM
- C[N+]1(CCC(=O)c2ccco2)CC2CCC(CC2)C1 (stereo not drawn): > 100 µM
- C/C(=C1/N=C(c2cc([N+](=O)[O-])ccc2Cl)N(c2cccc(C)c2)C1=O)c1cc2ccccc2oc1=O: > 100 µM
- NC1=CN(CCCO)C2=N/C(=C\c3ccccc3)C(=O)N12: > 100 µM

// query Look up TGI: c1ccc(-c2nnn3c2NC2=C(CCCC2)C3c2ccccc2)cc1 (stereo not drawn)
// result 40.2 µM

// query // next record "CCOC(=O)c1cc(C(=O)c2cc(OC)c(OC)c(OC)c2)n2ncccc12"
// result > 100 µM

// query // next record "COc1cc(NS(C)(=O)=O)ccc1Nc1cc[nH]c2ccc3nccc3c12"
// result 31.2 µM

// query // next record CCOc1cc(C2SCC(=O)N2c2ccc(Oc3ccc(Cl)cc3)c(Cl)c2)ccc1O (stereo not drawn)
// result 32 µM

// query // next record "Cc1ccc(NC(Nc2ccc(C)cc2C)=C(C(Cl)=C(Cl)Cl)[N+](=O)[O-])c(C)c1"
// result 29.2 µM

###

# Test system: OVCAR-3 ovarian
# EXPERIMENTAL DETAILS: NCI tumour cell line growth inhibition, 48 h
Recorded TGI by entry

Reference set, count: 10
• Cc1ccccc1N=Nc1c(O)c(S(=O)(=O)O)cc2cc(S(=O)(=O)O)ccc12 = > 100 µM
• O=C(/C=C/c1cc(Cl)cc(Cl)c1O)c1cccc(O)c1 = > 100 µM
• COC(=O)C1CCC(=O)N1CN(C(C)=O)c1ccccc1Cl (stereo unspecified) = > 100 µM
• CC(Nc1ncc2c(n1)-c1ccccc1OC2)C(=O)O (stereo unspecified) = > 100 µM
• COc1ccc(N=N/C(=N/NC(=O)c2ccc(C)cc2)c2ccc(N(CCC#N)CCC#N)cc2OC)cc1 = > 100 µM
• CC(=O)O[C@H]1C(=O)[C@@]2(C)C(C(OC(=O)c3ccccc3)[C@]3(O)C[C@H](OC(=O)C(OC(=O)CCCC(=O)NCCCN(C)C)C(NC(=O)c4ccccc4)c4ccccc4)C(C)=C1C3(C)C)C1(OC(C)=O)COC1C[C@@H]2O (stereo partly specified) = < 0.01 µM
• CC(=O)Nc1c(S(=O)(=O)c2ccccc2)c(C)c(C)n1CCN(C)C = > 100 µM
• c1ccc([P+](CCSCCSCC[P+](c2ccccc2)(c2ccccc2)c2ccccc2)(c2ccccc2)c2ccccc2)cc1 = > 100 µM
• NC(Cc1ccc(OCc2ccccc2)cn1)C(=O)O (stereo unspecified) = > 100 µM
• COc1ccc(C2=N[C@@H](Cc3ccccc3)C(=O)Nc3ccsc32)cc1 = 9.88 µM

// query Find the measured TGI: item "COc1ccc2c(c1OC)C[C@@H]1c3c(cc4c(c3-2)OCO4)CCN1C" , target or system OVCAR-3 ovarian.
// result > 100 µM

// query // next record C=C=C(CC1CCCCC1=O)S(=O)(=O)c1ccccc1 (stereo unspecified)
// result > 10 µM
